- tgt: human D2 receptor (Homo sapiens (Human))
- Sequence (P14416 whole entry): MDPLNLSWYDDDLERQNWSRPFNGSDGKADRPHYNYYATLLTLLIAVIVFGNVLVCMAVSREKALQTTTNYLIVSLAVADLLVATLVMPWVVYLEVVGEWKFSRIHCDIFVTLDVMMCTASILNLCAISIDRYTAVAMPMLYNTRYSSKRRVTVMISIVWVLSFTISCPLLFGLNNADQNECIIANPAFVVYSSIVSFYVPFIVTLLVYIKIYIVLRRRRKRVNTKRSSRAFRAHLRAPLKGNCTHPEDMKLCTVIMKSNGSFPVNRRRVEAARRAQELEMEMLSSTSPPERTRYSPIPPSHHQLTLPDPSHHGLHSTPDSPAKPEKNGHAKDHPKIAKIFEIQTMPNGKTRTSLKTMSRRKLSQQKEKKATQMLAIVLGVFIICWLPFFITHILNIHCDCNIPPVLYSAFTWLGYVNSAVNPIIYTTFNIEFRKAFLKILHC
- assay_summary: Radioligand binding assay, [3H]-spiperone, human D2 receptor
- measurement_setup: membranes of HEK293 EBNA cells expressing human D2; 0.7 nM [3H]-spiperone
Recorded pKi values for a group of compounds are listed next.
Field pKi (float): negative decimal logarithm of the concentration in molar.

Use these answered entries as a reference point.
O=C(CC1CCOCC1)N[C@H]1CC[C@H](CCN2CCN(c3nccc4sccc34)CC2)CC1 = 6.84
COCCC(=O)N[C@H]1CC[C@H](CCN2CCN(c3nc(C)cc4c3CCO4)CC2)CC1 = 5.83
CCC(=O)N[C@H]1CC[C@H](CCN2CCN(c3nccc4c3CCO4)CC2)CC1 = 6.09
O=C(N[C@H]1CC[C@H](CCN2CCN(c3nccc4c3CCO4)CC2)CC1)C1CCOC1 (mixture of isomers) = 6.22
CS(=O)(=O)c1ccc(C(=O)N[C@H]2CC[C@H](CCN3CCN(c4nccc5c4CCO5)CC3)CC2)s1 = 6.29
O=C(N[C@H]1CC[C@H](CCN2CCN(c3nccc4occc34)CC2)CC1)c1ccnc2ccccc12 = 6.34
O=C(C[C@H]1CCCO1)N[C@H]1CC[C@H](CCN2CCN(c3nccc4c3CCO4)CC2)CC1 = 6.04

QUERY: Given the compound "Cc1cc2occc2c(N2CCN(CC[C@H]3CC[C@H](NC(=O)C4CCOCC4)CC3)CC2)n1" , what is its reported pKi?
RESULT: 6.56

----------
Below, each entry is listed with its recorded pKi.
- tgt: human D2 receptor (Homo sapiens (Human))
- assay_summary: Radioligand binding assay, [3H]-spiperone, human D2 receptor
- measurement_setup: membranes of HEK293 EBNA cells expressing human D2; 0.7 nM [3H]-spiperone
Here pKi is given on a logarithmic scale as minus log10 of the concentration in mol/L.

Use these answered entries as a reference point.
O=S(=O)(N[C@H]1CC[C@H](CCN2CCN(c3nccc4c3CCO4)CC2)CC1)c1ccccc1 = 6.62
O=C(N[C@H]1CC[C@H](CCN2CCN(c3nccc4c3CCO4)CC2)CC1)C1(O)CC1 = 6.23
CN(C)S(=O)(=O)N[C@H]1CC[C@H](CCN2CCN(c3nccc4c3CCO4)CC2)CC1 = 6.11
COCC(=O)N[C@H]1CC[C@H](CCN2CCN(c3nccc4occc34)CC2)CC1 = 5.94
O=C(Cc1ccc2c(c1)OCO2)N[C@H]1CC[C@H](CCN2CCN(c3nccc4c3CCO4)CC2)CC1 = 5.52

// moving on: another record for pKi
QUERY: Report pKi for "COCCC(=O)N[C@H]1CC[C@H](CCN2CCN(c3nccc4sccc34)CC2)CC1" tested on human D2 receptor (Homo sapiens (Human)).
RESULT: 6.52

----------
Reported Ki values for a set of molecules
- tgt: human 5-HT2A receptor (Homo sapiens (Human))
- Sequence (P28223 whole entry): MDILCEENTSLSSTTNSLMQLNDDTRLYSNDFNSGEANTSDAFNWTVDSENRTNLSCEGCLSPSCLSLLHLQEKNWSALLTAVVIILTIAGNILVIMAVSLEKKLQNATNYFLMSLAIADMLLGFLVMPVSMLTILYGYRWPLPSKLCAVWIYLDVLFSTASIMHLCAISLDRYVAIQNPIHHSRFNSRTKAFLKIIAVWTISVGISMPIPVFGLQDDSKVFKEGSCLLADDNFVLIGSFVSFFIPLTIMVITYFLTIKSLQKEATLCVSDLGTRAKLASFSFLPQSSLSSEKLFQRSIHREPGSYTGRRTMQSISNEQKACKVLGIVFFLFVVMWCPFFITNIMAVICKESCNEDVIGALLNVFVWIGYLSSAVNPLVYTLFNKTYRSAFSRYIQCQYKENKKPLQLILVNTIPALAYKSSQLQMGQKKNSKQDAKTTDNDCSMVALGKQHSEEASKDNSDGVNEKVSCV
- assay_summary: Radioligand binding assay, [3H]-ketanserin, human 5-HT2A receptor
- measurement_setup: membranes of HEK293 EBNA cells expressing human 5-HT2A; 1.1 nM [3H]-ketanserin
Answer with a number only, understood to be in nM.

O=C(CC1COCCO1)N[C@H]1CC[C@H](CCN2CCN(c3nccc4c3CCO4)CC2)CC1 (mixture of isomers) = 9.7
CCC(=O)N[C@H]1CC[C@H](CCN2CCN(c3nccc4sccc34)CC2)CC1 = 2.6
O=C(C[C@H]1CC[C@H](O)CC1)N[C@H]1CC[C@H](CCN2CCN(c3nccc4sccc34)CC2)CC1 = 4

Attention now turns to another entry.
QUERY: # query: Ki of entry "COC(CC(=O)N[C@H]1CC[C@H](CCN2CCN(c3nccc4c3CCO4)CC2)CC1)OC"
RESULT: 15.7

----------
Each item that follows carries a reported melting point.
Form entry: value (°C) — number only.

QUERY: Could you share which melting point value was measured for O=C(CC1COCCO1)N[C@H]1CC[C@H](CCN2CCN(c3nccc4c3CCO4)CC2)CC1 (mixture of isomers) [Example 37] ?
RESULT: 186

QUERY: How about O=C(N[C@H]1CC[C@H](CCN2CCN(c3nccc4c3CCO4)CC2)CC1)c1ccc(-c2cccnc2)cc1 [Example 120] ?
RESULT: 218

QUERY: Please do the same for Cc1cnc(N2CCN(CC[C@H]3CC[C@H](NC(=O)CC4CCOCC4)CC3)CC2)c2ccoc12 [Example 106] as well.
RESULT: 205.5

QUERY: Follow-up entry: COC(CCC(=O)N[C@H]1CC[C@H](CCN2CCN(c3nccc4c3CCO4)CC2)CC1)OC [Example 114]
RESULT: 205.5

QUERY: Also, Cc1nc(-c2cccc(C(=O)N[C@H]3CC[C@H](CCN4CCN(c5nccc6c5CCO6)CC4)CC3)c2)no1 [Example 127] please.
RESULT: 218

QUERY: # iterate: COC(C)CC(=O)N[C@H]1CC[C@H](CCN2CCN(c3nccc4c3CCO4)CC2)CC1 (stereo partly drawn) [Example 139]
RESULT: 167

----------
# reported melting point; entries follow
Phrase the answer as number then unit, nothing more needed.

Worked set:
COCCC(=O)N[C@H]1CC[C@H](CCN2CCN(c3nccc4c3CCO4)CC2)CC1 = 246.5 °C
O=C(CC1CC1)N[C@H]1CC[C@H](CCN2CCN(c3nccc4c3CCO4)CC2)CC1 = 193 °C
O=C(CC1CCOCC1)N[C@H]1CC[C@H](CCN2CCN(c3nccc4c3CCO4)CC2)CC1 = 233 °C
O=C(C[C@@H]1CCCO1)N[C@H]1CC[C@H](CCN2CCN(c3nccc4c3CCO4)CC2)CC1 = 183.5 °C
O=C(CC1C[C@H](O)CO1)N[C@H]1CC[C@H](CCN2CCN(c3nccc4c3CCO4)CC2)CC1 (stereo in doubt) = 155 °C

QUERY: Sample "CCC(=O)N[C@H]1CC[C@H](CCN2CCN(c3nccc4c3CCO4)CC2)CC1" — what was its melting point?
RESULT: 192.5 °C

QUERY: For O=C(N[C@H]1CC[C@H](CCN2CCN(c3nccc4c3CCO4)CC2)CC1)C1CCCOC1 (mixture of isomers) then?
RESULT: 216 °C

QUERY: Param item: "CN(C)C(=O)CCC(=O)N[C@H]1CC[C@H](CCN2CCN(c3nccc4c3CCO4)CC2)CC1"
RESULT: 188 °C

QUERY: Also "O=C(N[C@H]1CC[C@H](CCN2CCN(c3nccc4c3CCO4)CC2)CC1)c1ccc(Cl)cc1Cl" , if possible.
RESULT: 203.5 °C

QUERY: For "O=C(Cc1noc2ccccc12)N[C@H]1CC[C@H](CCN2CCN(c3nccc4c3CCO4)CC2)CC1" then?
RESULT: 217.5 °C

QUERY: Follow-up entry: "O=C(N[C@H]1CC[C@H](CCN2CCN(c3nccc4c3CCO4)CC2)CC1)c1ccc2ncccc2c1"
RESULT: 227 °C

QUERY: Another compound to look at: "Cc1cnc(N2CCN(CC[C@H]3CC[C@H](NC(=O)C4CCOCC4)CC3)CC2)c2ccoc12"
RESULT: 228 °C

QUERY: "O=C(CC1COC1)N[C@H]1CC[C@H](CCN2CCN(c3nccc4c3CCO4)CC2)CC1" , same question.
RESULT: 195 °C

----------
- tgt: human D2 receptor (Homo sapiens (Human))
- assay_summary: Radioligand binding assay, [3H]-spiperone, human D2 receptor
- measurement_setup: membranes of HEK293 EBNA cells expressing human D2; 0.7 nM [3H]-spiperone
observation_type: Ki (nM)
Answer format: numeric, nM implied, no suffix.

CC[C@H](O)CC(=O)N[C@H]1CC[C@H](CCN2CCN(c3nccc4c3CCO4)CC2)CC1 [Example 89] = 887
CS(=O)(=O)N[C@H]1CC[C@H](CCN2CCN(c3nccc4c3CCO4)CC2)CC1 [Example 48] = 1270
O=C(N[C@H]1CC[C@H](CCN2CCN(c3nccc4c3CCO4)CC2)CC1)c1ccc(-n2cccn2)cc1 [Example 126] = 478
O=C(N[C@H]1CC[C@H](CCN2CCN(c3nccc4c3CCO4)CC2)CC1)c1ccc2c(c1)OCO2 [Example 121] = 3370
O=C(CCO)N[C@H]1CC[C@H](CCN2CCN(c3nccc4occc34)CC2)CC1 [Example 6] = 959
O=C(CC1COCCO1)N[C@H]1CC[C@H](CCN2CCN(c3nccc4c3CCO4)CC2)CC1 (mixture of isomers) [Example 37] = 1470

QUERY: Which measured Ki belongs to COCCC(=O)N[C@H]1CC[C@H](CCN2CCN(c3ncc(C)c4occc34)CC2)CC1 [Example 107] , tested on human D2 receptor (Homo sapiens (Human))?
RESULT: 2470

QUERY: Check CO[C@H]1CC[C@H](CC(=O)N[C@H]2CC[C@H](CCN3CCN(c4nccc5c4CCO5)CC3)CC2)CC1 [Example 65] too.
RESULT: 2450
